Reference for the values: patent US10590086B2

# system: TDO (Homo sapiens, UniProt P48775)
# Sequence (P48775 whole entry): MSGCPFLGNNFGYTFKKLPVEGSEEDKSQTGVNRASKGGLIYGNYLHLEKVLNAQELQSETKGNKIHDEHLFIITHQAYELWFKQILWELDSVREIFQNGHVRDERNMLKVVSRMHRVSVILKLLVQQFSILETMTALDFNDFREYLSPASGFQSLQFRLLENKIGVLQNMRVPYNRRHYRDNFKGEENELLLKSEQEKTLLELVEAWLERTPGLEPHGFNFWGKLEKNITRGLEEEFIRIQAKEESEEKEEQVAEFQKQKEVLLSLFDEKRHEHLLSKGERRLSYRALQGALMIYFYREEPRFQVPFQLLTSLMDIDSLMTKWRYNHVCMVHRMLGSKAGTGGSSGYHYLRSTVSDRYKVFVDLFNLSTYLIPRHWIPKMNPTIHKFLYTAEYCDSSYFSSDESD
# experiment notes: A172 kynurenine cell-based assay
# Design: This assay utilised cancer cells which expressed either TDO or IDO; endogenous in cells; host or cells: A172 (human glioblastoma)
# details: A172 human glioblastoma cells, 48 hours, 500 μM L-tryptophan; read-out: A172 Kynurenine cell based assay pIC50 (converted)
A collection of molecules and their measured IC50
quantity: IC50

molecule	system	quantity	value observed
CS(=O)(=O)N1CCC(c2cc(C(F)(F)F)cc3[nH]ncc23)CC1 [Compound 100]	TDO (Homo sapiens, UniProt P48775)	IC50	< 3.16 µM
CC(=O)NCCN1C(=O)NC2(CCN(c3cc(Cl)cc4[nH]ncc34)CC2)C1=O [Compound 412]	TDO (Homo sapiens, UniProt P48775)	IC50	< 3.16 µM
CCNC(=O)c1cc(Cl)cc2[nH]ncc12 [Compound 261]	TDO (Homo sapiens, UniProt P48775)	IC50	32.4 to 100 µM
O=C1NCC2CN(c3cc(Cl)cc4[nH]ncc34)CCN12 (stereo not shown) [Compound 88]	TDO (Homo sapiens, UniProt P48775)	IC50	< 3.16 µM
O=C1N[C@H]2CC[C@@H]1CN(c1cc(C(F)(F)F)cc3[nH]ncc13)C2 [Compound 439]	TDO (Homo sapiens, UniProt P48775)	IC50	< 3.16 µM
O=C1N(c2ccccc2)CNC12CCN(c1cc(Cl)cc3[nH]ncc13)CC2 [Compound 422]	TDO (Homo sapiens, UniProt P48775)	IC50	< 3.16 µM
OCCc1cc(Cl)cc2[nH]ncc12 [Compound 152]	TDO (Homo sapiens, UniProt P48775)	IC50	3.24 to 31.6 µM
CS(=O)(=O)N1CCN(c2cccc3[nH]ncc23)CC1 [Compound 10]	TDO (Homo sapiens, UniProt P48775)	IC50	3.24 to 31.6 µM
CC(=O)N1CC2(CCN(c3cc(Cl)cc4[nH]ncc34)CC2)C1 [Compound 359]	TDO (Homo sapiens, UniProt P48775)	IC50	< 3.16 µM
CC1CN(c2cc(Cl)cc3[nH]ncc23)CCN1S(C)(=O)=O (stereo not shown) [Compound 73]	TDO (Homo sapiens, UniProt P48775)	IC50	< 3.16 µM
O=C1NCCC12CCN(c1cc(Cl)cc3[nH]ncc13)CC2 [Compound 189]	TDO (Homo sapiens, UniProt P48775)	IC50	3.24 to 31.6 µM
CC1(C)CC(c2cc(C(F)(F)F)cc3[nH]ncc23)CCN1S(C)(=O)=O (stereo not shown) [Compound 154]	TDO (Homo sapiens, UniProt P48775)	IC50	< 3.16 µM
CC(=O)NCc1ccc(-c2cc(Cl)cc3[nH]ncc23)cc1 [Compound 276]	TDO (Homo sapiens, UniProt P48775)	IC50	< 3.16 µM
CC1(C)CN(c2cc(C(F)F)cc3[nH]ncc23)CCN1S(C)(=O)=O [Compound 370]	TDO (Homo sapiens, UniProt P48775)	IC50	< 3.16 µM
CS(=O)(=O)NCCn1cc(-c2cc(Cl)cc3[nH]ncc23)cn1 [Compound 373]	TDO (Homo sapiens, UniProt P48775)	IC50	< 3.16 µM
CS(=O)(=O)N1CCC(c2cc(N3CCOCC3)cc3[nH]ncc23)CC1 [Compound 206]	TDO (Homo sapiens, UniProt P48775)	IC50	3.24 to 31.6 µM
CN(C)S(=O)(=O)c1ccc(-c2cc(Cl)cc3[nH]ncc23)cc1 [Compound 277]	TDO (Homo sapiens, UniProt P48775)	IC50	< 3.16 µM
O=C1NC2(CCN(c3cc(Cl)cc4[nH]ncc34)CC2)C(=O)N1CC1CC1 [Compound 390]	TDO (Homo sapiens, UniProt P48775)	IC50	< 3.16 µM
Clc1cc(N2CCC(n3cccn3)CC2)c2cn[nH]c2c1 [Compound 339]	TDO (Homo sapiens, UniProt P48775)	IC50	< 3.16 µM
